Literature-derived Ki for Histamine H3 receptor (Cavia porcellus, UniProt Q9JI35) follows.
PROPERTY LABEL: Ki (nM)

Solved cases (3 shown):
COMPOUND	STUDY SYSTEM	Ki / nM
O=C(CCN1CCC(Cc2c[nH]cn2)CC1)Nc1ccc(CN2CCCCC2)cc1	Histamine H3 receptor (Cavia porcellus, UniProt Q9JI35)	40
O=C(C1CCN(Cc2ccncc2Cl)CC1)N1CCC(n2c(=O)[nH]c3ccccc32)CC1	Histamine H3 receptor (Cavia porcellus, UniProt Q9JI35)	222
N#Cc1ccc(OCCCN2CCC(Cc3c[nH]cn3)CC2)cc1	Histamine H3 receptor (Cavia porcellus, UniProt Q9JI35)	20

1: CN(CCCCc1c[nH]cn1)C(=O)CC(c1ccc(Cl)cc1)c1ccccn1 (stereo not given)
2: CCCCCCC(=O)N1CCC(Cc2c[nH]cn2)CC1
Query string: Pick one: 1 or 2 . Which one has the lower reported Ki? Answer format: the label of the selected item.
Result string: 1

###

Reported Ki against Histamine H3 receptor (Cavia porcellus, UniProt Q9JI35), gathered from multiple publications, appears below.
Sequence (Q9JI35 whole entry): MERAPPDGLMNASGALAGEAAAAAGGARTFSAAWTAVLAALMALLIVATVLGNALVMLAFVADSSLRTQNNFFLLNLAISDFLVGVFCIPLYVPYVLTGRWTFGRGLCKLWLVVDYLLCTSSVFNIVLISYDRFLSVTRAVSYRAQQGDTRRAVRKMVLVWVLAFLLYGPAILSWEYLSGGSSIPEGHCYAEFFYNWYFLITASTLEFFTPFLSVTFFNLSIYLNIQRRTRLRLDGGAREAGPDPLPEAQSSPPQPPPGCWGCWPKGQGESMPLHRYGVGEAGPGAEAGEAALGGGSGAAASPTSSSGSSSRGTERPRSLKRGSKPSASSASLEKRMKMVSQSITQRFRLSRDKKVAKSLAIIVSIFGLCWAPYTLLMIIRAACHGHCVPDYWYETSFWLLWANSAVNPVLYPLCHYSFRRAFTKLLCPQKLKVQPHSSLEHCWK
PROPERTY LABEL: Ki (nM)

# example entries with known answers
COMPOUND	UNIT TEXT	Ki
CC(C)OCCn1c(=O)n(C2CCN(C(=O)C3CCN(Cc4ccncc4)CC3)CC2)c2ccccc21	nM	0.65
c1cnc2ccc(OCCCN3CCC(Cc4cnc[nH]4)CC3)cc2c1	nM	52
CC(C)Cn1c(=O)n(C2CCN(C(=O)C3CCN(Cc4ccncc4)CC3)CC2)c2ccccc21	nM	0.4
COCCn1c(=O)n(C2CCN(C(=O)C3CCN(Cc4ccncc4)CC3)CC2)c2ccccc21	nM	2
CN(C)CCn1c(=O)n(C2CCN(C(=O)C3CCN(Cc4ccncc4)CC3)CC2)c2ccccc21	nM	0.2

a: CC(c1ccc(Cl)c(Cl)c1)n1c(=O)n(C2CCN(C(=O)C3CCN(Cc4ccnc(N)c4)CC3)CC2)c2ccccc21 (stereo unspecified)
b: O=S(=O)(NCCCCCCCCc1c[nH]cn1)NCc1ccc(Cl)cc1
c: Nc1cc(CN2CCC(C(=O)N3CCC(n4c(=O)n(CCN5CCOCC5)c5cc(F)ccc54)CC3)CC2)ccn1
d: O=C(C1CCN(Cc2ccncc2)CC1)N1CCC(n2c(=O)n(CCN3CCCCC3)c3ccccc32)CC1
e: O=C(CC(c1ccc(Cl)cc1)c1ccccn1)NCCCCc1c[nH]cn1 (stereo unspecified)
Query string: Ascending by Ki, please: list the compounds accordingly. Answer by writing out the labels in the requested order.
Result string: d, e, c, b, a
(d: 0.15 nM, e: 1 nM, c: 2.3 nM, b: 13.2 nM, a: 77 nM)

###

Record set: Ki | Histamine H3 receptor (Cavia porcellus) | literature, multiple sources.
PROPERTY LABEL: Ki (nM)

Observe how each entry below is paired with its result.
COMPOUND	UNIT TEXT	READING
CN(C)CCCOc1ccc(CN2CCC(Cc3cnc[nH]3)CC2)cc1	nM	17
C[C@H](c1c[nH]cn1)[C@@H](C)N (racemic)	nM	0.8
c1cncc(-c2ccc(OCCCN3CCC(Cc4cnc[nH]4)CC3)cc2)c1	nM	12

1: O=C1CCCCN1Cc1ccc(OCCCN2CCC(Cc3cnc[nH]3)CC2)cc1
2: N=C(N)c1cccc(-c2c[nH]cn2)c1
Query string: Which record would sort first by descending Ki, 1 or 2 ? I would appreciate it if you answered with the label of your choice.
Result string: 2
(2: 350 nM, 1: 34 nM)
